Where these numbers come from: patent US8785436B2

# TEST_TARGET: BACE1 (Homo sapiens, UniProt P56817)
# Construct: Human HEK293 cells which are stably transfected with a vector expressing a cDNA of the human APP wt gene (APP695); endogenous in cells; host or cells: HEK293 cells stably expressing human APP695 wt
# Sequence (P56817 46-501): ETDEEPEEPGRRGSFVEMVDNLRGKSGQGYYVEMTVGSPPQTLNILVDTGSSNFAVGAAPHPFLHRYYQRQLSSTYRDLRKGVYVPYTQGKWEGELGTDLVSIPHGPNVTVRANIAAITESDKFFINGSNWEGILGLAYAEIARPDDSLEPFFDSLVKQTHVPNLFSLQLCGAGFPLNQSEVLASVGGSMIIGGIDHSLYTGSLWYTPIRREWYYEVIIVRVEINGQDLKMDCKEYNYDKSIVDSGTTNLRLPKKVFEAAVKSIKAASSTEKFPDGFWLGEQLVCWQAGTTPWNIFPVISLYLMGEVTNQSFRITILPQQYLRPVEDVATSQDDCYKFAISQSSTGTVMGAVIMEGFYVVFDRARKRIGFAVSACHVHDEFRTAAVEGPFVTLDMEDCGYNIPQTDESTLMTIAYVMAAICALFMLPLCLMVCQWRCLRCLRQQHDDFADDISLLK
# ASSAY_METHOD_TEXT: Cellular Aβ-lowering assay b) (Abeta 40 AlphaLISA, HEK293 APP cells)
# Type: cell-based
# CONDITION_DESCRIPTION: 18-20 hrs incubation, read-out: BACE1 cell act. Aβ40 IC50
ENDPOINT: IC50 (µM)

Reference set, count: 8
>  <COMPOUND>
C[C@]1(c2cc(-c3cncnc3)c(F)cc2F)N=C(N)OCC1(F)F

>  <TEST_TARGET>
BACE1 (Homo sapiens, UniProt P56817)

>  <UNIT_STRING>
µM

>  <RECORDED_RESULT>
0.38

$$$$
>  <COMPOUND>
C[C@]1(c2cccc(OCC3CC3(F)F)c2)N=C(N)OCC1(F)F (mixture of isomers)

>  <TEST_TARGET>
BACE1 (Homo sapiens, UniProt P56817)

>  <UNIT_STRING>
µM

>  <RECORDED_RESULT>
3.7

$$$$
>  <COMPOUND>
C[C@]1(c2cccc(OCC3CC3)c2)N=C(N)OCC1(F)F

>  <TEST_TARGET>
BACE1 (Homo sapiens, UniProt P56817)

>  <UNIT_STRING>
µM

>  <RECORDED_RESULT>
3.12

$$$$
>  <COMPOUND>
C[C@]1([C@@H]2C[C@H]2C(=O)Nc2cccc3cc(Cl)cnc23)N=C(N)OCC1(F)F

>  <TEST_TARGET>
BACE1 (Homo sapiens, UniProt P56817)

>  <UNIT_STRING>
µM

>  <RECORDED_RESULT>
0.36

$$$$
>  <COMPOUND>
CC1(C)OC(N)=N[C@](C)(c2cc(-c3cc(C#N)ccc3Cl)ccc2F)C1(F)F

>  <TEST_TARGET>
BACE1 (Homo sapiens, UniProt P56817)

>  <UNIT_STRING>
µM

>  <RECORDED_RESULT>
2.88

$$$$
>  <COMPOUND>
NC1=NC(c2cc(-c3cncc(Cl)c3)ccc2F)(C(F)F)CCO1 (stereo not shown)

>  <TEST_TARGET>
BACE1 (Homo sapiens, UniProt P56817)

>  <UNIT_STRING>
µM

>  <RECORDED_RESULT>
0.502

$$$$
>  <COMPOUND>
C[C@]1(c2cc(-c3cncc(Cl)c3)c(F)cc2F)N=C(N)OCC1(F)F

>  <TEST_TARGET>
BACE1 (Homo sapiens, UniProt P56817)

>  <UNIT_STRING>
µM

>  <RECORDED_RESULT>
0.88

$$$$
>  <COMPOUND>
CC1(C)OC(N)=N[C@](C)(c2cc(Nc3cccc(C(F)(F)F)n3)ccc2F)C1(F)F

>  <TEST_TARGET>
BACE1 (Homo sapiens, UniProt P56817)

>  <UNIT_STRING>
µM

>  <RECORDED_RESULT>
4.17

$$$$

(I) NC1=N[C@@](c2cc(-c3cncc(Cl)c3)ccc2F)(C(F)F)CCO1 [Example 54B]
(II) C[C@]1(c2cccc(OCCC(F)(F)F)c2)N=C(N)OCC1(F)F
(III) C[C@]1(C2CC2C(=O)Nc2cccc3cc(Cl)cnc23)N=C(N)OCC1(F)F (stereo in doubt)
Q: In this exercise, place the 3 compounds in ascending sequence of their recorded IC50. Note for the reader: the ranking is given by listing the labels in the order requested.
A: I, III, II

###

# TEST_TARGET: BACE1 (Homo sapiens)
# Construct: Human HEK293 cells which are stably transfected with a vector expressing a cDNA of the human APP wt gene (APP695); endogenous in cells; host or cells: HEK293 cells stably expressing human APP695 wt
# ASSAY_METHOD_TEXT: Cellular Aβ-lowering assay a) (Aβ40 ELISA, HEK293 APP cells)
# Format: cell-based
# CONDITION_DESCRIPTION: cellular assay a): HEK293 APP695 cells, 18-20 hrs incubation, read-out: BACE1 cell act. Aβ40 IC50
pIC50: −log10 of the molar value. Counter-ions that a name gives are not always drawn.
ENDPOINT: pIC50

Example cases with answers are listed next.
>  <COMPOUND>
Cn1cc(Cl)c(CNc2ccc(F)c([C@@]3(C)N=C(N)OC[C@]3(C)F)c2)n1 [Example 13]

>  <TEST_TARGET>
BACE1 (Homo sapiens)

>  <RECORDED_RESULT>
7.32

$$$$
>  <COMPOUND>
C[C@]1(c2cc(-c3cnn(-c4ccc(F)cc4)c3)ccc2F)N=C(N)OC[C@@H]1F [Example 10, Hydrochloride]

>  <TEST_TARGET>
BACE1 (Homo sapiens)

>  <RECORDED_RESULT>
6.44

$$$$
>  <COMPOUND>
C[C@]1(c2cc(NCc3cccs3)ccc2F)N=C(N)OC[C@@H]1F [Example 5]

>  <TEST_TARGET>
BACE1 (Homo sapiens)

>  <RECORDED_RESULT>
6.27

$$$$
>  <COMPOUND>
Cc1cnn(-c2ccc(F)c([C@@]3(C)N=C(N)OC[C@@H]3F)c2)c1 [Example 11]

>  <TEST_TARGET>
BACE1 (Homo sapiens)

>  <RECORDED_RESULT>
5.89

$$$$

(1) CC1(C)OC(N)=N[C@](C)(c2cc(-c3cc(Cl)cc(Cl)c3)ccc2F)C1(F)F [Example 51]
(2) C[C@]1(c2cc(NC3CS(=O)(=O)c4ccccc43)ccc2F)N=C(N)OCC1(F)F (mixture of isomers) [Example 28]
(3) C[C@]1(c2cc(NC3CCCc4cc(C#N)cnc43)ccc2F)N=C(N)OCC1(F)F (mixture of isomers) [Example 27]
(4) C#CCNC(=O)c1ccc(F)c([C@@]2(C)N=C(N)OCC2(F)F)c1 [Example 41]
Q: Please order the records by their reported pIC50, lowest number first. Record the ranking as a list of labels in the requested order.
A: 1, 4, 2, 3
(1: 4.84, 4: 5.18, 2: 5.79, 3: 6.34)

(P) C[C@@]1(c2cc(NCc3nn(C(F)F)cc3Cl)ccc2F)CCOC(N)=N1 [Example 1]
(Q) C[C@]1(c2cc(-c3cnn(-c4ccc(F)cc4)c3)ccc2F)N=C(N)OCC1(F)F [Example 31]
Q: Of P and Q , which carries the smaller reported pIC50 figure? Please respond with the label that marks your chosen entry.
A: Q

(A) C[C@]1(c2cc(NCc3ccsc3)ccc2F)N=C(N)OC[C@@H]1F [Example 6]
(B) COc1ccc(Cc2cc3cc(F)c([C@@]4(C)N=C(N)OCC4(F)F)cc3[nH]2)cc1 [Example 39]
Q: Endpoint returns whichever of A and B has the numerically higher pIC50. // respond with label for picked entry
A: A

(A) C[C@]1(c2cc(NC3CCc4cc(C#N)cnc43)ccc2F)N=C(N)OCC1(F)F (mixture of isomers) [Example 22]
(B) C[C@]1(c2cccc(OCc3ccc(C(F)(F)F)cc3)c2)N=C(N)OCC1(F)F [Example 36]
(C) CC(Nc1ccc(F)c([C@@]2(C)N=C(N)OCC2(F)F)c1)c1nn(CC(F)F)cc1Cl (mixture of isomers) [Example 19]
Q: Order the records so the highest pIC50 appears first and the lowest last. // rank by listing labels in the order requested
A: A, C, B
(A: 7.96, C: 5.75, B: 5.11)

###

# TEST_TARGET: BACE1 (Homo sapiens, UniProt P56817)
# Construct: Human HEK293 cells which are stably transfected with a vector expressing a cDNA of the human APP wt gene (APP695); endogenous in cells; host or cells: HEK293 cells stably expressing human APP695 wt
# ASSAY_METHOD_TEXT: Cellular Aβ-lowering assay a) (Aβ40 ELISA, HEK293 APP cells)
# Assay type: cell-based
# CONDITION_DESCRIPTION: cellular assay a): HEK293 APP695 cells, 18-20 hrs incubation, read-out: BACE1 cell act. Aβ40 IC50
pIC50: −log10 of the molar value.
ENDPOINT: pIC50

>  <COMPOUND>
C[C@]1(c2cc(NCC3CC3)ccc2F)N=C(N)OCC1(F)F [Example 25]

>  <pIC50>
6.51

$$$$
>  <COMPOUND>
C[C@@]1(c2cc(NC3CCCC3)ccc2F)CCOC(N)=N1 [Example 2]

>  <pIC50>
6.47

$$$$
>  <COMPOUND>
CC1(C)OC(N)=N[C@](C)(c2cc(NC3CCCC3)ccc2F)C1(F)F [Example 48]

>  <pIC50>
6.54

$$$$

###

# TEST_TARGET: BACE2 (Rattus norvegicus)
# Construct: endogenous cellular BACE2 in the Ins1e rat cell line; endogenous in cells
# Sequence (Q6IE75 63-514): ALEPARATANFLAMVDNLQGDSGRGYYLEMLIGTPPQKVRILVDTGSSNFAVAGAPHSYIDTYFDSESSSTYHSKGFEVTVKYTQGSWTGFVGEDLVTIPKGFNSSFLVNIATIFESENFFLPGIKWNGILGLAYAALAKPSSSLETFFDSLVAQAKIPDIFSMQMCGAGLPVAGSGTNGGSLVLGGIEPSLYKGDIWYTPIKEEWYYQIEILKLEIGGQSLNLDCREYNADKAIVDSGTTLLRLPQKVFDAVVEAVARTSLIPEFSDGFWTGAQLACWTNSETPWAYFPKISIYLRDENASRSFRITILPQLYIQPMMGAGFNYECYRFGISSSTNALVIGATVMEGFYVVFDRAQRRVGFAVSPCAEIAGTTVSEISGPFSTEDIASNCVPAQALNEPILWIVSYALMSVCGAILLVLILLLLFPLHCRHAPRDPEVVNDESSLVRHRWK
# ASSAY_METHOD_TEXT: BACE inhibition by measuring cellular TMEM27 cleavage (INS-TMEM27 cells, ELISA)
# CONDITION_DESCRIPTION: INS-TMEM27 (Ins1e rat) cells, shed human TMEM27 by ELISA; read-out: BACE2 cell act. IC50
ENDPOINT: IC50 (nM)

Known results for compounds:
>  <COMPOUND>
COc1ccccc1Nc1ccc(F)c([C@@]2(C)N=C(N)OC[C@@H]2F)c1

>  <IC50 [nM]>
970

$$$$
>  <COMPOUND>
C[C@]1(c2cc(NC3CCc4cc(Cl)cnc43)ccc2F)N=C(N)OCC1(F)F (mixture of isomers)

>  <IC50 [nM]>
1700

$$$$
>  <COMPOUND>
C[C@]1(c2cc(NC3CCc4cc(C#N)cnc43)ccc2F)N=C(N)OCC1(F)F (mixture of isomers)

>  <IC50 [nM]>
753

$$$$
>  <COMPOUND>
C[C@]1(c2cc(NCC3CC3)ccc2F)N=C(N)OC[C@@H]1F

>  <IC50 [nM]>
164

$$$$
>  <COMPOUND>
C[C@]1(F)COC(N)=N[C@]1(C)c1cc(NCc2nn(C(F)F)cc2Cl)ccc1F

>  <IC50 [nM]>
588

$$$$

(P) C[C@@]1(c2cc(NCc3nn(C(F)F)cc3Cl)ccc2F)CCOC(N)=N1
(Q) C[C@]1([C@@H]2C[C@H]2C(=O)Nc2cccc3cc(Cl)cnc23)N=C(N)OCC1(F)F
(R) CC1(C)OC(N)=N[C@](C)(c2cc(Nc3ccccc3C#N)ccc2F)C1(F)F
Q: Hello, I need these entries ordered by IC50, highest reading first. Thanks! // rank by listing labels in the order requested
A: R, Q, P
(R: 4140 nM, Q: 1350 nM, P: 180 nM)
